The reported numbers originate from ChEMBL document CHEMBL5252513.

Parameter fraction unbound: see the listing below.
# ASSAY NAME: Protein binding in rat plasma
# Type: ADME, cell-free
# STUDY CONDITIONS: read-out: PPB (converted)
Write the value as a bare number.

Solved cases (6 shown):
COMPOUND	fraction unbound
CCNC(=O)C[C@@H]1N=C(c2ccc(Cl)cc2)c2ccccc2-c2c(C)noc21	0.04
Cc1noc2c1-c1ccccc1C(c1ccc(Cl)cc1)=N[C@H]2CC(N)=O	0.07
CCNC(=O)NC1N=C(c2ccc(Cl)cc2)c2ccccc2-c2c(C)noc21 (centres undefined)	0.02
COc1ccc2c(c1)C(c1ccc(Cl)cc1)=N[C@@H](CC(N)=O)c1onc(C)c1-2	0.06
Cc1noc2c1-c1ccccc1C(c1ccc(Cl)cc1)=N[C@H]2CC(N)C(F)(F)F (some centres undefined)	0.01
Cc1noc2c1-c1ccc(-c3ccc(N)nc3)cc1C(c1ccc(Cl)cc1)=N[C@H]2CC(N)=O	0.09

// recorded fraction unbound for `COCCNC(=O)C[C@@H]1N=C(c2ccc(Cl)cc2)c2ccccc2-c2c(C)noc21` : 0.07

Looking up `Cc1cccc2c1C(c1ccc(Cl)cc1)=N[C@@H](CC(N)=O)c1onc(C)c1-2` , I found its fraction unbound recorded as 0.04

The compound identified as `Cc1noc2c1-c1ccccc1C(c1ccccc1)=N[C@H]2CC(N)=O` registered its fraction unbound at 0.2
